Taken from BigSolDB 2.1.

settings: in DMF, 299.15 K
property_measured: solubility (mole fraction)
Just the number.

Looking up O=C1/C(=C/c2ccc(O)cc2)CCC/C1=C\c1ccc(O)cc1 , I see its solubility (mole fraction) listed as 0.0332

---

details: in THF, 303.15 K
property_measured: solubility (mole fraction)
No unit in the answer, only the number.

Measured solubility (mole fraction) of O=C1/C(=C/c2ccc(O)cc2)CCC/C1=C\c1ccc(O)cc1 : 0.0256

---

conditions: in DMSO, 308.15 K
property_measured: solubility (mole fraction)
Form rule: numeric answer, no unit written next to it.

Entry O=C1/C(=C/c2ccc(O)cc2)CCC/C1=C\c1ccc(O)cc1 ; solubility (mole fraction) = 0.0156
